- assay_remarks: In vitro enzyme assay to detect hydrolysis of chlorophenol red-beta-D-[…] directly proportional to the number of Toxoplasma stably expressing beta-galactosidase
- Format: functional, organism-based, Toxoplasma gondii
- Design: scale not given: in the data most compounds retested in dose-response had high values
- conditions: 10 µM
Out of some 85,000 compounds screened, about 440 (0.52%) showed an effect of 50% or more. This excerpt belongs to a sample that is enriched for strong results.
Consider the following compounds; for each one, report its Percent Effect.
Use % as the unit, but write only the number.

-- ask # Percent Effect lookup, item CC(C)NC(=O)C1CN(C(=O)CCc2ccccc2)CC12CCOCC2 (stereo not drawn)
-- reply 56.76

-- ask COCC1CN(C(=O)Cc2cccs2)Cc2nnn(C)c21 (stereo not drawn) ?
-- reply 4.219

-- ask Same lookup for CC(C)NC(=O)C1CN(C(=O)NCc2ccccc2)CC12CCOCC2 (stereo not drawn) , please.
-- reply -9.471
